System: UACC-62 melanoma
Experiment: NCI-60 one-dose screen, 48 h
Details: 10 µM unless noted
The panel holds about 83,000 compounds, 20% with a hit somewhere; the sample as a whole holds those more often. The source made the active and inactive calls. Rule for the calls: active = growth percent below 10; inactive = the rest.
Assign a class; possible classes are active, inactive

Qu. Field: outcome | Entry: Cc1cc(-c2cc(O)ccc2Cl)cc2nnc(Nc3ccc(OCCN4CCCC4)cc3)nc12
Ans. active

---

Tested on: PC-3 prostate
Test: NCI-60 one-dose screen, 48 h (100 = growth as untreated, 0 = no growth, -100 = all killed)
Details: 10 µM unless noted
This is part of a sample that, as a whole, favours compounds with a hit. Of some 83,000 tested, about 20% had one in any assay.
Outcome Measure: growth (%)
Just the number in %, nothing appended.

Consider the reported growth for these compounds:
| Compound | growth, % |
| --- | --- |
| CCN(CC)CCN1C(=O)c2cccc3c(-c4ccc5c(c4)ncn5C4CCCCC4)ccc(c23)C1=O | 5.21 |
| C=CC(=O)Nc1cccc(Nc2nc(Nc3ccc(N4CCN(C(C)=O)CC4)cc3OC)ncc2C(F)(F)F)c1 | 27.6 |
| COC(=O)CNC(=O)[C@@H](OC)[C@@H]1Cc2cc3cc(OC4CC(OC5CC(O)C(O)C(C)O5)C(O)C(C)O4)c(C)c(O)c3c(O)c2C(=O)[C@H]1OC1CC(OC2CC(OC3CC(C)(O)C(O)C(C)O3)C(O)C(C)O2)C(O)C(C)O1 (stereo partly drawn) | 12.9 |
| COc1cc(NC2CCC(=O)N2c2ccc(Cl)cc2Cl)cc(OC)c1OC (stereo not drawn) | 95.9 |
| O=c1[nH]c([C@@H]2CCCN2)nc2c1oc1ccc(Cl)cc12 | 58 |

Qu. Return growth for the following compound: C=CC(=O)Nc1cc2c(Nc3ccc(F)c(Cl)c3)ncnc2cc1C#CC(C)(C)N1CCN(C)CC1
Ans. -87.4

Qu. State its growth: CNC(=O)c1ccccc1Nc1nc(Nc2ccc3c(c2OC)CCC[C@H](N2CCN(CCO)CC2)C3)ncc1Cl
Ans. 22.9

Qu. Output measured growth for this item: Cc1c(Cn2c(C)nc3c(C(=O)O)cc(N4CCOCC4)cc32)cccc1C(F)(F)F
Ans. 68.2

Qu. Tell me its growth given CN1CC[C@H](c2c(O)cc(O)c3c(=O)cc(-c4ccccc4Cl)oc23)[C@H](O)C1 as the entry.
Ans. -4.62

Qu. Tell me its growth given O=C(Cc1ccccc1)Nc1nnc(NC2CCN(c3nnc(NC(=O)Cc4ccccc4)s3)CC2)s1 as the entry.
Ans. 87.1

Qu. Look up and state reported growth for COc1ccc(C2CC(=O)c3c(O)c(OC)c(OC)c(OC)c3O2)cc1O (stereo not drawn)
Ans. 31.2

Qu. Hello, please tell me recorded growth for this one: O=C(Nc1ccc(N=Nc2ccccc2)cc1)c1cccc2ccccc12
Ans. 54.8

---

Parameter: growth. Scope: all listed entries.
Test system: KM12 colon
Test: NCI-60 one-dose screen, 48 h (100 = growth as untreated, 0 = no growth, -100 = all killed)
Details: 10 µM unless noted
About 83,000 compounds went through this panel and 20% of them were active in at least one assay; those are over-represented in the sample as a whole. Activity calls are given as the source filed them. How the source made its calls: active means growth percent below 10; inactive means the rest.

| Compound | Outcome Measure | Result Value |
| --- | --- | --- |
| Cc1ccc(NC(=O)NC(=O)CSc2nc3ccccc3nc2C)cc1 | growth | 76.5% (inactive) |
| CCN(CC)CCOc1ccc(/C(=C(\C)c2ccc(Cl)cc2)c2ccc(Cl)cc2)cc1 | growth | 40.3% (inactive) |
| CC(=O)c1c(C)c2cnc(Nc3ccc(N4CCNCC4)cn3)nc2n(C2CCCC2)c1=O | growth | 11.3% (inactive) |
| N#Cc1c(NC(=O)c2ccco2)[n+]([O-])c2cc(F)c(F)cc2[n+]1[O-] | growth | 85% (inactive) |
| C=CC(=O)N1CCC[C@H](n2c(=O)n(-c3ccc(Oc4ccccc4)cc3)c3c(N)ncnc32)C1 | growth | 92.1% (inactive) |
| Cc1c(N)ccc(-c2ccc(N)c(C)c2S(=O)(=O)O)c1S(=O)(=O)O | growth | 116% (inactive) |

Qu. Recall the reported growth of C=CC[n+]1c(/C=C2\Sc3ccccc3N2C)sc(-c2ccccc2)c1-c1ccccc1 when tested on KM12 colon.
Ans. 14% (inactive)

Qu. Report measured growth on KM12 colon; entry: COc1ccc(COc2cc3oc(=O)c4cc(C(C)O)ccc4c3cc2OC)cc1 (stereo not given)
Ans. 53% (inactive)

Qu. Provide measured growth on KM12 colon for Cc1cc(N(CCNc2ccnc3cc(Cl)ccc23)Cc2ccc3c(c2)OCO3)nc(N2CCCC2)n1 please.
Ans. 44.9% (inactive)

Qu. System KM12 colon. Read-out growth. Item CCN1/C(=C/C=C/c2n(-c3ccccc3)c3ccc(-c4nc5ccccc5s4)cc3[n+]2CC)N(c2ccccc2)c2ccc(-c3nc4ccccc4s3)cc21 . Report value.
Ans. 10.6% (inactive)

Qu. Send back KM12 colon growth of Cc1cn(-c2cc(NC(=O)c3ccc(C)c(Nc4nccc(-c5cccnc5)n4)c3)cc(C(F)(F)F)c2)cn1 only.
Ans. 30% (inactive)

Qu. Report its growth with KM12 colon as the test system: COc1ccc2c(OCc3nnc4ccc(-c5ccccc5)nn34)ccnc2c1
Ans. 94.3% [2.5 µM] (inactive)

Qu. Lab note: record growth of CN1[C@@H]2CC[C@H]1/C(=C\c1ccccc1)C1=C2[C@@H](c2ccccc2)C(C#N)=C(N)O1 tested on KM12 colon.
Ans. 85.3% (inactive)

Qu. Consider the compound O=C(Cn1cncn1)Nc1ccc(-c2nc3ccccc3s2)cc1 tested on KM12 colon; state its growth.
Ans. 98.2% (inactive)

Qu. Enter measured growth, system KM12 colon, for the compound shown: COc1ccc(/C(C)=C(\c2ccc(Cl)cc2)c2ccc(OCCN3CCCCCC3)cc2)cc1
Ans. 31.2% (inactive)

Qu. Enter growth (test system KM12 colon) for O=C(NC[C@H](O)CO)c1ccncc1Nc1ccc(I)cc1F
Ans. 16.6% (inactive)

Qu. Given CN(C)CCn1c(=O)c2c3cc4c(cc3n(CCN(C)C)c2c2ccc(Cl)cc21)OCO4 , report its growth on KM12 colon.
Ans. 45.1% (inactive)

Qu. Name the value of growth reported for CCOc1ccc(N=C(C)Nc2ccc(OCC)cc2)cc1 when tested on KM12 colon.
Ans. 117% (inactive)

Qu. State, for KM12 colon, measured growth of the compound listed here: CC(C)=CCc1cc2c(cc1O)C1=C(C(=O)C3=C(NCCS3(=O)=O)C1=O)C(C=C(C)C)O2 (stereo not given)
Ans. 54.5% (inactive)

Qu. Report growth on KM12 colon for this entry: Cn1c(=O)c(F)c(Nc2ccc(I)cc2F)c2c(=O)n(C[C@@H](O)CO)cnc21
Ans. 19.9% (inactive)

---

The reader will find reported growth values listed item by item below.
Test system: SF-268 CNS
Assay: NCI-60 one-dose screen, 48 h (100 = growth as untreated, 0 = no growth, -100 = all killed)
Conditions: 10 µM unless noted
Description: Cells are grown in 96 well plates and exposed to the test compound for 48 hours. Compounds are tested at a single concentration, which is 10^-5 M for most compounds. The reported endpoint is percent growth (GI% or GIPRCNT), where numbers from 0 - 100% represent growth inhibition, and numbers from -100% - 0 represent cell death. For example, a value of 40 represents 60% growth inhibition. A value of 0 means no net growth occurred over the course of the experiment. […]
The panel holds about 83,000 compounds, 20% with a hit somewhere; the sample as a whole holds those more often.
// note: answer is a bare numeric in %

| Molecule | Result Value |
| --- | --- |
| Cc1sc2c(c1C)c(=O)nc1c(-c3nc(-c4ccccc4)cs3)n[nH]n12 | 96.2 |
| CO[C@H]1C[C@@H]2CC[C@@H](C)[C@@](O)(O2)C(=O)C(=O)N2CCCC[C@H]2C(=O)O[C@H]([C@H](C)C[C@@H]2CC[C@@H](OP(C)(C)=O)[C@H](OC)C2)CC(=O)[C@H](C)/C=C(\C)[C@@H](O)[C@@H](OC)C(=O)[C@H](C)C[C@H](C)\C=C/C=C/C=C/1C | 62.9 |

Qu. Please report the measured growth for CN1CCN(c2ccc(C(=O)Nc3n[nH]c4ccc(Cc5cc(F)cc(F)c5)cc34)c(NC3CCOCC3)c2)CC1
Ans. -60.5

Qu. Quick one: give measured growth for Cn1cnc2c(F)c(Nc3ccc(Br)cc3Cl)c(C(=O)NOCCO)cc21
Ans. 77.2

Qu. Return reported growth. Input molecule: Clc1ccc(/C=C/c2cc(N3CCOCC3)c3cc(Cl)c(Cl)cc3n2)cc1
Ans. 58

Qu. Write down growth measured for item Cn1ccnc1C(=O)/C=C/c1ccc(CC(=O)Nc2ccc(S(F)(F)(F)(F)F)cc2)cc1
Ans. 7.07

Qu. Tell me measured growth for C[C@@H](Nc1cc(F)cc(F)c1)c1cc(C(=O)N(C)C)cc2c(=O)cc(N3CCOCC3)oc12 please.
Ans. 56.8

Qu. Hello, please tell me recorded growth for this one: COC(=O)CNC(=O)[C@@H](OC)[C@@H]1Cc2cc3cc(OC4CC(OC5CC(O)C(O)C(C)O5)C(O)C(C)O4)c(C)c(O)c3c(O)c2C(=O)[C@H]1OC1CC(OC2CC(OC3CC(C)(O)C(O)C(C)O3)C(O)C(C)O2)C(O)C(C)O1 (stereo partly specified)
Ans. 21.1
